- System: Wolbachia pipientis
- assay explanation: Anti-Wolbachia Cell-Based Screen
- Format: functional
- Parameters: scale not given: in the data most compounds retested in dose-response had high values
- experimental conditions: 5 µM
Among all 48,000 compounds or so, about 13,000 (27%) showed an effect of 50% or more. The list shows a part of the results.
Listed here are compounds together with their documented Percent Effect.
Respond numerically; units are % and should not be typed.

# compound, reading unit, Percent Effect
data = [
    ("CC(C)C(=O)N1CCCC12CCCN(C(=O)c1ccno1)C2 (stereo not given)", "%", -3.277),
    ("O=C(c1cc2c(s1)CCC2)N1CCC(c2cnccn2)CC1", "%", 151.2),
    ("O=C(c1cc2c(s1)CCCCC2)N1CCC(c2ncc[nH]2)CC1", "%", 88.07),
    ("O=C1CN(C(=O)CC2C(=O)NCCN2CC2CCCCC2)CCN1 (stereo not given)", "%", -19.63),
    ("CCC(O)CN1CCN(C(=O)c2sccc2C(C)C)CC1 (stereo not given)", "%", 113.4),
    ("CC(C)C(=O)N1CCCC12CCN(C(=O)c1ccno1)C2 (stereo not given)", "%", -2.946),
    ("O=C(c1cc2c(s1)CCC2)N1CCN(c2cnccn2)CC1", "%", 87.73),
    ("Cc1cc(CN2CCN(C(=O)c3sccc3C(C)C)CC2)no1", "%", -0.2452),
]

What reported Percent Effect corresponds to CS(=O)(=O)NCCC1CN(Cc2ccccc2F)CCO1 (stereo not given) on Wolbachia pipientis?
-13.1

What reported Percent Effect corresponds to `O=C(NCc1nncn1C1CC1)c1ccc(F)c(COCC2CC2)c1` on Wolbachia pipientis?
-29.13

----------
- Test system: Wolbachia pipientis
- assay explanation: Anti-Wolbachia Cell-Based Screen
- Assay type: functional
- Set-up: scale not given: in the data most compounds retested in dose-response had high values
- experimental conditions: 5 µM
In all, about 48,000 compounds went through this assay and about 13,000 (27%) showed an effect of 50% or more. The list shows a part of the results.
compounds and their reported Percent Effect
Please give a number only; it is taken to be in %.

See these solved cases before continuing.
# compound, reading unit, Percent Effect
rows = [
    ("O=c1n(CCSCc2ccccc2Cl)nc2ccccn12", "%", 6.647),
    ("Cn1cnnc1CCNC(=O)c1ccccc1OC1CCC1", "%", -17.05),
    ("COCCN1CCC(C(=O)N(C)Cc2c[nH]c3ccc(C)cc23)C1 (stereo not given)", "%", -13.06),
    ("COCCN1Cc2ccnn2CC(COCc2cccnc2)C1 (stereo not given)", "%", -11.51),
    ("COCCOc1ncccc1NCc1nc2ccccc2n1C", "%", 92.25),
    ("Cc1cc(Br)cnc1NCCN1CCC(N(C)C)CC1", "%", 23.33),
    ("Cn1c(CCCNc2nccnc2C#N)nc2ccccc21", "%", -4.565),
    ("CCc1ncncc1C(=O)NCCNS(=O)(=O)c1ccccc1", "%", 12.25),
]

Tell me the measured Percent Effect of Cc1cc(NCC2CC(=O)Nc3ccccc32)nc(C)n1 (stereo not given) , please.
2.28

What measured Percent Effect goes with `Cc1ccc(-n2ncc(C(=O)NC3CC(C)(C)NC(C)(C)C3)c2N)cc1` ?
174.2

Request the reported Percent Effect associated with `Cc1noc(C)c1CCC(=O)NCCc1cccs1`
18.14

Data request, read-out Percent Effect, for `Cc1nn(C)c(C)c1CCC(=O)Nc1cn(C)c(=O)n(C)c1=O`
-11.84

Name the reported Percent Effect value associated with the compound `CCc1nsc(N2CCN(CC(=O)Nc3c(C)n[nH]c3C)CC2)n1`
-25.55

Reported Percent Effect for `Cc1ccc2nc(NCCN3CCOCC3)n(C)c(=O)c2c1` : what is it?
2.729

Need Percent Effect, item `Cc1nc2[nH]cnc(NCCN3CCCC3)c-2n1`
101.2

Please give the measured Percent Effect for this compound: `CN1CCC(N[C@@H]2CO[C@H](CNC(=O)C3CCCC3)[C@H]2O)CC1`
-10.26

Fill in the blank: the reported Percent Effect of `CC1CCN(C(=O)c2cn(-c3cc(N4CCOCC4)ncn3)cn2)CC1` is ____.
4.259

Look at this compound and give its reported Percent Effect. CCNC(=O)C1CCN(c2cc(-c3ccccc3F)nc3ccnn23)C1 (stereo not given)
-1.287

Recorded Percent Effect of Cc1cc(CN(C)C(=O)C2CCCN(C(=O)c3cccs3)C2)no1 (stereo not given) , please.
-2.385

# lookup: Percent Effect of `CC(=O)N1CCC2(CC1)C(=O)N(c1ccc(C)nc1)CCN2CC(C)C`
-6.199

Any idea what its Percent Effect is? The compound is `Cc1ccc(NC(=O)CNc2ccn(CC(N)=O)n2)c(Cl)c1`
2.31

Which Percent Effect is reported for this compound? `COc1ccc(-n2c(CO)nc3ccccc32)cc1CO`
-2.808

Report Percent Effect for `Cc1noc(C)c1CC(=O)Nc1ccn(CC(N)=O)n1` please.
108.2

Fill in the blank: the reported Percent Effect of `NCc1csc(CCc2ccccc2)n1` is ____.
-7.942

----------
Each entry below carries its recorded Percent Effect.
- Tested on: Wolbachia pipientis
- assay explanation: Anti-Wolbachia Cell-Based Screen
- Assay type: functional
- Parameters: scale not given: in the data most compounds retested in dose-response had high values
- experimental conditions: 5 µM
About 13,000 (27%) of roughly 48,000 compounds showed an effect of 50% or more. The list shows a part of the results.
I only need the number, in %, no unit after it.

Record request: Percent Effect value, item `Cc1cc(C)c(CNC(=O)NCCNc2ncccn2)c(=O)[nH]1`
-4.444

Look up Percent Effect for this compound: Cn1cnc2c1C(COCC1CC1)CN(C(=O)c1ccsc1)C2 (stereo unspecified)
-2.938

// returns reported Percent Effect for input `CCN(CC)C(=O)Nc1ccc(N2CCSCC2)cc1C`
-12.7

Suppose we examine the compound CN1CCN(S(=O)(=O)c2cccc(S(=O)(=O)C3CCS(=O)(=O)C3)c2)CC1 (stereo unspecified) ; what Percent Effect value has been reported?
83.09

----------
Consider the following molecules and their measured Percent Effect readings.
- Test system: Wolbachia pipientis
- assay explanation: Anti-Wolbachia Cell-Based Screen
- Assay type: functional
- Design: scale not given: in the data most compounds retested in dose-response had high values
- experimental conditions: 5 µM
The whole screen tested about 48,000 compounds, of which about 13,000 (27%) showed an effect of 50% or more. This is one part of the list.

Recorded Percent Effect, per entry:
# molecule, value measured
measured = [
    ("CC(C)Cc1ncc2c(n1)CN(C(=O)c1ccc(CN3CCCC3)o1)C2", "8.376%"),
    ("Cc1ccsc1-c1nnc(C2CCN(Cc3ccc(F)cc3)CC2)o1", "-8.577%"),
    ("Cc1ccc(C(C)NC(=O)N2CCN(C(=O)CC(F)(F)F)CC2)o1 (stereo unspecified)", "-14.24%"),
    ("Cc1nnc(CN(C)CCCOc2cccc(Cl)c2)o1", "-9.851%"),
    ("CC(C)c1nnc(N2C[C@@H]3CC[C@H](C2)N(Cc2ccccc2)C3)s1", "104.2%"),
]

With those in mind, consider the next molecule.
Form: Entry = `CCn1c(CN(C)C)nnc1C1CCN(Cc2ccncc2)CC1` | System = Wolbachia pipientis | Percent Effect = ____
-6.888%

----------
- Test system: Wolbachia pipientis
- assay explanation: Anti-Wolbachia Cell-Based Screen
- Format: functional
- Parameters: scale not given: in the data most compounds retested in dose-response had high values
- experimental conditions: 5 µM
Hit rate of the full screen: of about 48,000 compounds, about 13,000 (27%) showed an effect of 50% or more. The list shows a part of the results.
Each item that follows carries a reported Percent Effect.
Express your answer in %, writing the number without its unit.

# molecule, reading unit, Percent Effect
measured = [
    ("CC1CN(C(=O)CCc2cc(Br)cs2)CCO1 (stereo unspecified)", "%", -0.4778),
    ("NC(=O)CN1C(=O)CO[C@H]2CN(Cc3ccc(C(F)(F)F)cc3)C[C@H]21", "%", -2.639),
    ("Cn1cc(C(=O)N(Cc2ccco2)Cc2cccs2)ccc1=O", "%", -5.076),
    ("O=C(NCc1cccc(N2CCCCC2=O)c1)[C@@H](O)c1ccccc1", "%", -1.556),
    ("CC(C)=CCCC1(C)C=Cc2c(cc(C)n(CCC(=O)O)c2=O)O1 (stereo unspecified)", "%", 110.1),
    ("CC1CN(C(=O)CN(Cc2ccccc2)C2CC2)CCO1 (stereo unspecified)", "%", 126.4),
    ("CC1CN(C(=O)CN(Cc2ccccc2Br)C2CC2)CCO1 (stereo unspecified)", "%", 15.13),
    ("Cc1ccn(CCNc2ncnc3c2CCN(S(C)(=O)=O)CC3)n1", "%", 5.573),
    ("Cc1cc2c(c(=O)n1CCC(=O)O)C=CC(C)(C)O2", "%", 159.6),
    ("O=S1(=O)C[C@@H]2[C@H](C1)N(Cc1cccc(O)c1)CCN2CC1CC1", "%", -9.844),
]

Quick check: Percent Effect on Wolbachia pipientis, item CC1CN(C(=O)CN(Cc2ccco2)Cc2cccs2)CCO1 (stereo unspecified) ?
127.8

Hello, the source for this data is ChEMBL document CHEMBL3988442, in case you need it.
